- Tested Target: T1, CD30-Fc (human)
- T1 construct: also called extracellular domain of CD30 fused with human IgG Fc
- T1 chain: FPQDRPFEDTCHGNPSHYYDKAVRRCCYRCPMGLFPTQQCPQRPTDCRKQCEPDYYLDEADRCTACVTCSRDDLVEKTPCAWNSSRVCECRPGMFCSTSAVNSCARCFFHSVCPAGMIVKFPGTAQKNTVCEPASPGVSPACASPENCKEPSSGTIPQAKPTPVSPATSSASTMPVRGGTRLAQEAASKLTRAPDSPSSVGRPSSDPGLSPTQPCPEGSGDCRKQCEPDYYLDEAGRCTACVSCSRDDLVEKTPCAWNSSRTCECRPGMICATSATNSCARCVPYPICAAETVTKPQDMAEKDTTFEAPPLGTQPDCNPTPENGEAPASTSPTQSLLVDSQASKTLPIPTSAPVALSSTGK
- Protocol Details: affinity of the MAb; ELISA using CD30-Fc
# Kd values compiled below
Property Name: Kd

binder="T24 MAb (antibody, V domains shown) VH: QVQLQQPGAELVRPGASVKLSCKASGYSFTSYWIDWVKQRPGQGLEWIGNIYPSNAYTNYNQKFKDKATLTVDKSSSTAYMQLSSPTSEDSAVYYCTSVLDYFYAMDYWGQGTSVTVSS VL: DIQMTQTTSSLSASLGDRVTISCRASQDISNYLNWYQQKPDGTVKLLIYYTSRLHSGVPSRFSGSGSGTDYSLTISNLEQEDIATYFCQQVNTLPRTFGGGTKLEIKR" property_name=Kd observed_value="2.2 nM"
binder="T201 MAb (antibody, V domains shown) VH: QVQLKESGPGLVAPSQSLSITCTVSGFSLIDYGVSWVRQPPGKGLEWLGMIWGDGNTDYNSGLKSRLSISKDNSKSQVFLKVNSLQTDDTARYYCARPSTGTLFAYWGQGTLVTVSA VL: EIVLTQSPTTMAASPGERITFTCSASSGISSIYLHWYQQKPGFSPKLLIYRTSNLASGVPPRFSGSGSGTSYSLTIGTMEAEDVATYYCQQGSSIPLTFGAGTKLELKR" property_name=Kd observed_value="8.3 nM"
binder="T105 MAb (antibody, V domains shown) VH: QVTLKESGPGILQPSQTLSLTCSFSGFSLSTSGMGVSWIRQPSGKDLEWLAHIYWDDDKRYNPSLKSRLTISKDTSSNQVFLKITSVDTADTATYYCARRADGLYFYLDVWGAGTTVTVSS VL: DIVMTQSQKFMSTSVGDRVSVTCKASQNVNTNVAWYQQKPGQSPEALIYSASYRYSGVPDRFTGSGSGTDFTLTISNVQSEDLAEYFCQQYNSYPLTFGSGTKLEIKR" property_name=Kd observed_value="4.2 nM"
binder="T25 MAb (antibody, V domains shown) VH: QVTLKESGPGILQPSQTLSLTCSFSGFSLNTSGVGVGWIRQPSGKGLEWLAHIWWDDDERYNPVLKSRLTISKDTSSNQVFLKIANVDTADSATYYCVRSMVAWFPYWGRGTLVTVSA VL: DIVMSQSPSSLAVSVGEKFTVNCKSSQSLLYSSNQKNFLAWYQQKPGQSPKLLIYWASTRESGVPDRFIGSGSGTDFTLTISSVKAEDLAVYYCQQHYRYPWTFGGGTKLEIKR" property_name=Kd observed_value="6.4 nM"
binder="T6 MAb (antibody, V domains shown) VH: QVQLKESGPGLVTPSQSLSITCTVSGFSLSKYSIHWVRQPPGRGLEWLGMIWGVENTDYNSALKSRLSISKDNSKSQVFLKMNSLQSDDTAMYYCARKDLGLYGMNYWGQGISVTVSA VL: DIVMTQSQKFMSTSVGDRVSVTCKASQNVGTNVAWYQQKPGQSPKALFYSASYRYSGVPDRFIGSGSGTVFTLTISNVQSEDLAEYFCQQYNTYPLTFGSGTKLEIER" property_name=Kd observed_value="13 nM"
binder="T13 MAb (antibody, V domains shown) VH: QVQLQQSGAELAKPGASVKMSCKASGYTFTTYWMHWVKQRPGQGLEWIGYINPSTGYTDYNEKFKDKATLTADKSSSTAYMQLSSLTSEDSAVYYCVRRGSYDGNPFAYWGQGTLVSVSA VL: DIVMTQSHKFMSTSVGDRVTITCKASQDVSTAVAWYQQKPGHSPKLLIYWASTRHTGVPDRFTGSGSGTDYTLTISSVQVEDLALYYCQQHYSTPFTFGSGTKLEIKR" property_name=Kd observed_value="3.1 nM"
